This collection of values is drawn from PubChem BioAssay AID1159580.

protocol-summary: chemical genetic growth profiling, strain panel (AID 1159580);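 also: tested at 20 µM; growth read once vehicle control cultures reached saturation at 30 °C; 1 = growth at the plate median or of vehicle wells; lower values mean less growth of the strain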
applied-conditions: S. cerevisiae deletion strains, growth OD, locus YJR043C, strain POL32, hits give low values
The whole screen tested about 5,500 compounds, of which about 2,000 (36%) were called active. Another 18% or so got no clear call; they are omitted. The list shows a part of the results.
readout: normalized growth
Number, no unit, nothing else.

Worked cases, answers included:
- O=C(N/N=C\c1ccccc1Cl)c1cccnc1: 0.995
- CCOC(=O)c1c(SC)[nH]c2c(C(F)(F)F)cccc2c1=O: 0.982
- O=C(N/N=C\c1ccccc1Cl)N/N=C\c1ccccc1Cl: 0.945
- Clc1ccc(Cl)cc1: 1
- Cc1onc(-c2c(Cl)cccc2Cl)c1C(=O)N1CCN(c2ncccc2C(F)(F)F)CC1: 0.966

Please find the next molecule below.
Query string: Param item = COc1cc([C@@H]2c3cc4c(cc3C(O[C@@H]3O[C@@H]5CO[C@@H](c6cccs6)OC5[C@H](O)[C@H]3O)C3COC(=O)[C@@H]32)OCO4)cc(OC)c1O (stereo not given in full) ; retrieve measured normalized growth.
Result string: 0.982

###

protocol-summary: chemical genetic growth profiling, strain panel (AID 1159580);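 also: tested at 20 µM; growth read once vehicle control cultures reached saturation at 30 °C; 1 = growth at the plate median or of vehicle wells; lower values mean less growth of the strain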
applied-conditions: S. cerevisiae deletion strains, growth OD, locus YNL307C, strain MCK1
In all, about 5,500 compounds went through this assay and about 2,000 (36%) were called active. Inconclusive results (about 18%) are left out. Rule as the data show it: active = normalized growth mostly below about 0.91 (no sharp cut-off); inconclusive = no clear call, values can overlap the other calls; inactive = mostly above about 0.92. Some of the results follow.
Answer with one of the outcomes 1 (yes) = active, 0 (no) = inactive

Examples with answers:
- CN1CCOC(c2ccccc2)c2ccccc2C1 (centres undefined): 0 (no)
- C[N+]1(CCCCC[N+]2(C)CCCC2)CCCC1: 0 (no)
- CC(C)c1ccc2c(c1O)CC[C@H]1C3=C(CC[C@]21C)C(=O)OC3: 1 (yes)

Please examine the following record next.
Query string: // outcome(item) with item = Nc1nc(N)c2nc(-c3ccccc3)c(N)nc2n1
Result string: 0 (no)

###

protocol-summary: chemical genetic growth profiling, strain panel (AID 1159580);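 also: tested at 20 µM; growth read once vehicle control cultures reached saturation at 30 °C; 1 = growth at the plate median or of vehicle wells; lower values mean less growth of the strain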
applied-conditions: S. cerevisiae deletion strains, growth OD, locus YER155C, strain BEM2 (second series), hits give low values
Among all 5,500 compounds or so, about 2,000 (36%) were called active. Roughly 18% stayed inconclusive and do not appear here. This is one part of the list.
readout: normalized growth
Number, no unit, nothing else.

Worked cases, answers included:
* CC1(C)O[C@@H]2CC3C4CCC5=CC(=O)C=C[C@]5(C)[C@@]4(F)[C@@H](O)C[C@]3(C)[C@]2(C(=O)CO)O1 (stereo not given in full) | 0.983
* COCCOC(=O)C1=C(C)NC(C)=C(C(=O)OC(C)C)C1c1cccc([N+](=O)[O-])c1 (stereo not given) | 1.03
* CCCCC1C(=O)N(c2ccccc2)N(c2ccccc2)C1=O | 1.03

Query string: Param item = Cc1cc2cc3c(C)cc(=O)oc3c(C)c2o1 ; retrieve measured normalized growth.
Result string: 0.926

Query string: What would you report for NS(=O)(=O)c1cc2c(cc1C(F)(F)F)NCNS2(=O)=O ?
Result string: 0.98

Query string: What would you report for COc1c(O)cccc1O ?
Result string: 1.01

Query string: What would you report for CC(=O)O[C@H]1C[C@H](O[C@H]2[C@@H](O)C[C@H](O[C@H]3[C@@H](O)C[C@H](O[C@H]4CC[C@@]5(C)C(CCC6C5C[C@@H](O)[C@]5(C)[C@@H](C7=CC(=O)OC7)CC[C@]65O)C4)O[C@@H]3C)O[C@@H]2C)O[C@H](C)[C@H]1O[C@@H]1O[C@H](CO)[C@@H](O)[C@H](O)[C@H]1O (stereo not given in full) ?
Result string: 1.01

Query string: What would you report for CCCCCCCCCc1ccc(O)cc1 ?
Result string: 0.504

Query string: What would you report for COc1cc([C@@H]2c3cc4c(cc3[C@H](OC(C)=O)[C@H]3COC(=O)[C@H]23)OCO4)cc(OC)c1OC ?
Result string: 1.04

Query string: What would you report for O=C1c2c(O)ccc(O)c2C(=O)c2c(NCCNCCO)ccc(NCCNCCO)c21 ?
Result string: 0.965

Query string: What would you report for CCN(CC)CCNc1ccc(CO)c2sc3ccccc3c(=O)c12 ?
Result string: 0.972

Query string: What would you report for COC(=O)C1=C(C)NC(C)=C(C(=O)OC)C1c1ccccc1[N+](=O)[O-] ?
Result string: 0.987

Query string: What would you report for CCCCCCc1ccc(O)cc1O ?
Result string: 0.642

Query string: What would you report for CN(C)C(=O)Oc1cc(OC(=O)N(C)C)cc(C(O)CNC(C)(C)C)c1 (stereo not given) ?
Result string: 1.03

Query string: What would you report for COC(=O)C1=C(C)NC(C)=C(C(=O)OCCN(C)Cc2ccccc2)C1c1cccc([N+](=O)[O-])c1 (stereo not given) ?
Result string: 0.968

Query string: What would you report for C[N+]1(CCCCC[N+]2(C)CCCC2)CCCC1 ?
Result string: 0.996

Query string: What would you report for CCCCCCCCCCCCCCCC[n+]1ccccc1 ?
Result string: 0.0821

Query string: What would you report for CN1CCN2c3ccccc3Cc3ccccc3C2C1 (stereo not given) ?
Result string: 0.978

Query string: What would you report for NCCc1ccc(O)cc1 ?
Result string: 0.951

Query string: What would you report for CC(=O)Oc1cc(-c2coc3cc(OC(C)=O)c(OC(C)=O)c(OC(C)=O)c3c2=O)cc(OC(C)=O)c1OC(C)=O ?
Result string: 0.906
